Taken from ChEMBL document CHEMBL1135275.

Recorded K inact/Km for the following molecules
- Target of assay: Chymotrypsinogen B (Bos taurus) (UniProt P00767)
- Sequence (P00767 16-146 limits assumed, other chains not shown): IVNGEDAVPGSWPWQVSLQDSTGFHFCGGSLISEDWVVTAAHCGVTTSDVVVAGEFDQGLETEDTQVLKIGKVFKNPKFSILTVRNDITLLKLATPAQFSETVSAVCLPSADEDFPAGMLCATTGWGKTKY
- Sequence (P00767 149-245 limits assumed, other chains not shown): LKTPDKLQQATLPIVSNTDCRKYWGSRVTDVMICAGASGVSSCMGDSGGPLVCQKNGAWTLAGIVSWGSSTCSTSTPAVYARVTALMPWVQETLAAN
- Assay overview: The compound was tested for inhibitory potency against Chymotrypsinogen
Number only, in M⁻¹ s⁻¹; omit the unit.

Examples from the recorded data:
INPUT: Which K inact/Km is reported for this molecule? O=C(c1ccccc1)c1cc2cc(CCl)ccc2oc1=O
OUTPUT: 2400

INPUT: Which K inact/Km is reported for this molecule? O=C(Nc1ccccc1)c1cc2cc(CCl)ccc2oc1=O
OUTPUT: 200

INPUT: Which K inact/Km is reported for this molecule? O=C(Cc1ccccc1)c1cc2cc(CCl)ccc2oc1=O
OUTPUT: 10000

INPUT: Which K inact/Km is reported for this molecule? O=C(Sc1ccccc1)c1cc2cc(CCl)ccc2oc1=O
OUTPUT: 48000

# input for lookup
INPUT: Which K inact/Km is reported for this molecule? O=C(Oc1ccccc1)c1cc2cc(CCl)ccc2oc1=O
OUTPUT: 100000
